Catalogue of compounds with associated inhibition
# MEASUREMENT_PROTOCOL: inhibitors of E-selectin induction by TNFa, primary screen, imaging, HUVEC, immunofluorescence, MLSMR starter and 10KST1 sets (AID 487);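 further: signal is fraction of cell area covered by stained E-selectin grains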
# SETTINGS: HUVEC TNFalpha-induced E-selectin immunofluorescence imaging, at 2 µM; active compounds read high

[
  {
    "STRUCTURE_AS_SMILES": "CCc1c(C(=O)O)[nH]c2ccc(Br)cc12",
    "UNIT": "%",
    "inhibition": -21.7
  },
  {
    "STRUCTURE_AS_SMILES": "CCN(CC)c1ccc2c(C)c(-c3ccc(N)cc3)c(=O)oc2c1",
    "UNIT": "%",
    "inhibition": 25
  },
  {
    "STRUCTURE_AS_SMILES": "O=C(CN1C(=O)c2ccccc2C1=O)NCc1ccccn1",
    "UNIT": "%",
    "inhibition": -67.3
  },
  {
    "STRUCTURE_AS_SMILES": "O=C(c1cccs1)N1CCC(N2CCN(c3ccccc3)CC2)CC1",
    "UNIT": "%",
    "inhibition": -50.1
  },
  {
    "STRUCTURE_AS_SMILES": "C/C(=N\\O)c1ccc2[nH]ccc2c1",
    "UNIT": "%",
    "inhibition": 45.4
  },
  {
    "STRUCTURE_AS_SMILES": "C=COC(=O)CSc1nc(-c2cccs2)ccc1C#N",
    "UNIT": "%",
    "inhibition": -26.9
  }
]
